These measurements were taken from paper PMC2909451.

- Test System: human apical sodium-dependent transporter (SLC10A2, ASBT) (Homo sapiens, UniProt Q12908)
- Sequence (Q12908 whole entry): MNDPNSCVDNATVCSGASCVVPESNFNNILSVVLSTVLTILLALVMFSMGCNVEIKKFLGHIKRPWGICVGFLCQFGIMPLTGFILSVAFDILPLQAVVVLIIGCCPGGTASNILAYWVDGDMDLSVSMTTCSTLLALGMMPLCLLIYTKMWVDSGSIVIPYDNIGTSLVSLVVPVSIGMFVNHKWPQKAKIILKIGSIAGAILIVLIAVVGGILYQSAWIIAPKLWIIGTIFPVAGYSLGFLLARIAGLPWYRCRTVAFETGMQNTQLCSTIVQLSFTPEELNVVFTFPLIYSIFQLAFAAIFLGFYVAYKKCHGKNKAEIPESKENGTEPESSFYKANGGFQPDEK
- Experiment Description: ASBT cis-inhibition of taurocholate uptake in ASBT-MDCK cells
- Conditions Used: Ki, inhibitor concentration range 0-50 μM; mean±S.E.
Measurement Type: pKi
Hey, just a heads up that pKi is the negative log base 10 of the concentration in molar.

Molecule	pKi
CC(C)n1c(/C=C/C(O)CC(O)CC(=O)O)c(-c2ccc(F)cc2)c2ccccc21 (centres unmarked)	4.56
CC(C)c1nc(N(C)S(C)(=O)=O)nc(-c2ccc(F)cc2)c1/C=C/[C@@H](O)C[C@@H](O)CC(=O)O	3.83
N=C(N)c1ccc(OCCCCCOc2ccc(C(=N)N)cc2)cc1 [Pentamidine Isethionate, pentamidine isethionate]	3.60

So what does the record say about pKi for Clc1ccc(C(Cn2ccnc2)OCc2ccsc2Cl)c(Cl)c1 (centres unmarked) ?
4.49

Try this molecule next: COc1ccc2c(c1)c(CC(=O)O)c(C)n2C(=O)c1ccc(Cl)cc1
4.09
